The reader will find reported EC50 (pM), HEK-Blue IL-18R reporter assay values listed item by item below.
assayedTarget: T1, IL-18 receptor (IL-18Rαβ) on cells (UniProt Q13478 19-541; O95256 20-599, limits assumed)
T1 sequence (looked up) 1: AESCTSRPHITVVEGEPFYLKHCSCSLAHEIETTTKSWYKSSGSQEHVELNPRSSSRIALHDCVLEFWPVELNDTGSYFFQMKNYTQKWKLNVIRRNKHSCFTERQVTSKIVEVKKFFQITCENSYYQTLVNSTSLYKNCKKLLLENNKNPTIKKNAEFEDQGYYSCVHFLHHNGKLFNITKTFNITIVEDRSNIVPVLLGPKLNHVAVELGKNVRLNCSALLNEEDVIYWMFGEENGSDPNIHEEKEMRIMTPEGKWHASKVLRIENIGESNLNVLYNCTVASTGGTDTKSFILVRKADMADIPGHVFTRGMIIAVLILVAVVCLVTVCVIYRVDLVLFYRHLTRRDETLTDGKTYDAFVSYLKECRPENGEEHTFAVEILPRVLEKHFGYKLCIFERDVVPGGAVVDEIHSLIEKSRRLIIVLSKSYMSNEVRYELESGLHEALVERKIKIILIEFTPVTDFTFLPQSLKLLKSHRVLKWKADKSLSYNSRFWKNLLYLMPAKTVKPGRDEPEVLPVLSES
T1 sequence (looked up) 2: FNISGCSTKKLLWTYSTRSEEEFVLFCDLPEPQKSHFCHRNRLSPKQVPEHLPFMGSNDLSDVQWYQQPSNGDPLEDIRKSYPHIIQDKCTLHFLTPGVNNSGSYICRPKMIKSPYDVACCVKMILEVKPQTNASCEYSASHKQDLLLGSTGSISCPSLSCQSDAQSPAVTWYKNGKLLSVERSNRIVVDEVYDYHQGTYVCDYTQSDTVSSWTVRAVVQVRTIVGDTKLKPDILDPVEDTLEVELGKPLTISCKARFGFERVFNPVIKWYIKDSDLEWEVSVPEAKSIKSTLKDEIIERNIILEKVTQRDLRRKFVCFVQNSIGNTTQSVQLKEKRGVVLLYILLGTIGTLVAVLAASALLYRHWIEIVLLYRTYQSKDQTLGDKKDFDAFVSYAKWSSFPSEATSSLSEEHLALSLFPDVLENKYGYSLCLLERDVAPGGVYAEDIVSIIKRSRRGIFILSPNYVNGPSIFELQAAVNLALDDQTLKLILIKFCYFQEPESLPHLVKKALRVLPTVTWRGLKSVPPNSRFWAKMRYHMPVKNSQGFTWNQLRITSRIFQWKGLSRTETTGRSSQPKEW
assayText: cell-based or functional assay
Value expressed in pM; do not type the unit.

binder	readoutValue
C181 (E6K, V11I, C38A, K53A, T63A, C76A, C127A, V153E) (ligand) YFGKLKSKLSIIRNLNDQVLFIDQGNRPLFEDMTDSDARDNAPRTIFIISMYADSQPRGMAVAISVKCEKISTLSAENKIISFKEMNPPDNIKDTKSDIIFFQRSVPGHDNKMQFESSSYEGYFLAAEKERDLFKLILKKEDELGDRSIMFTEQNED	0.1

Now look at this one.
// query Any idea what EC50 (pM), HEK-Blue IL-18R reporter assay was measured for IL-18 polypeptide SEQ ID NO: 42 (E06K, K53A, S55A, T63A) (ligand) YFGKLKSKLSVIRNLNDQVLFIDQGNRPLFEDMTDSDCRDNAPRTIFIISMYADAQPRGMAVAISVKCEKISTLSCENKIISFKEMNPPDNIKDTKSDIIFFQRSVPGHDNKMQFESSSYEGYFLACEKERDLFKLILKKEDELGDRSIMFTVQNED ?
// result 0.79

These entries and their values trace back to patent US20240116997A1.
